assay_method_text: P-glycoprotein substrates identified in KB-3-1 adenocarcinoma cell line, qHTS therapeutic library screen (AID 1346986); note: nearly all actives have a fitted effect of over 60% in size
measurement_parameters: KB-3-1 parental cells viability, CellTiter-Glo, 72 h; series mostly up to 44.5 µM
Inconclusive results are not listed. Activity calls are given as the source filed them. Calls come from the whole dose curve; as a rule, active = well fitted inhibition curve with a large enough effect; inconclusive = small, poorly fitted or top-dose-only effect; inactive = no such curve, though single readings can be large or run the other way.
reported_endpoint: outcome

Check out these entries, answers already filled in.
{"compound": "C=C1C(O)CC2C(C(=O)O)=COC(O[C@@H]3O[C@H](COC(=O)c4ccc(O)cc4)[C@@H](O)[C@H](O)[C@H]3O)C12 (stereo not given in full)", "reported_measurement": "inactive"}
{"compound": "C=C(CCO[C@@H]1O[C@H](CO)[C@@H](O)[C@H](O)[C@H]1O)C(=O)O", "reported_measurement": "inactive"}
{"compound": "N#CC1C(=O)N=C(c2cc(Cl)ccc2O)C=C1c1cc(OCc2ccccc2)cc(OCc2ccccc2)c1 (stereo not given)", "reported_measurement": "inactive"}
{"compound": "COc1cc(C2Oc3c(OC)cc(CCCO)cc3C2CO)ccc1O (stereo not given)", "reported_measurement": "inactive"}

For the next question, use this compound.
So for CCC12CCCN3CCc4c(n(c5ccccc45)C(O)C1)C32 (stereo not given) , the logged outcome turned out to be inactive
